# Assay name: qHTS assay for identifying genotoxic compounds that show differential cytotoxicity against isogenic chicken DT40 cell lines with known DNA damage response pathways - Rad54/Ku70 mutant cell line (AID 743015); note: % is set by controls: 0 for no effect and ±100 for the full control effect; nearly all actives have a fitted effect of over 60% in size
# Condition description: DT40 Rad54/Ku70 mutant viability, CellTiter-Glo, 40 h; series mostly up to 66.8 µM
Records with an inconclusive call do not appear. Active and inactive are the calls of the source. Calls come from the whole dose curve; as a rule, active = well fitted cell-killing curve with a large enough effect in the repeat runs; inconclusive = weak or mixed curves; inactive = no such curve, though single readings can be large or run the other way.
Pick one and only one: active, inactive

CC(C)COC(=O)CCCCC(=O)OCC(C)C : inactive

INPUT: What is the recorded call for this compound in the test? COC(/C=C(\C)CCC=C(C)C)OC
OUTPUT: inactive

INPUT: What is the recorded call for this compound in the test? O=C(O)c1ccccc1C(=O)Nc1ccc(S(=O)(=O)Nc2nccs2)cc1
OUTPUT: inactive

INPUT: What is the recorded call for this compound in the test? BrC/C=C/CBr
OUTPUT: inactive

INPUT: What is the recorded call for this compound in the test? O=S(=O)(O)SSS(=O)(=O)O
OUTPUT: inactive

INPUT: What is the recorded call for this compound in the test? CCC(C)(C)C1CCC(=O)CC1
OUTPUT: inactive

---

# Assay name: qHTS assay to identify small molecule agonists of the sonic hedgehog signaling (Shh) pathway (AID 1259368);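 note: NIH/3T3-derived 3T3Gli1-Luc cells carrying a stable Gli1-driven firefly luciferase reporter; % is set by controls: 0 for no effect and ±100 for the full control effect; nearly all actives have a fitted effect of over 15% in size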
# Condition description: NIH/3T3 Gli1-Luc reporter, luciferase, 24 h, active compounds read high; series mostly up to 92.4 µM
Calls of active or inactive are those of the source. Calls come from the whole dose curve.
Property: activity change

Cc1nc2n(c(=O)c1CCN1CCC(C(=O)c3ccc(F)cc3)CC1)CCS2 : inactive
O=C(O)Cc1cccc(-c2cc(CCCCCCc3ccc(O[C@H]4O[C@H](CO)[C@@H](O)[C@H](O)[C@@H]4O)c(-c4cccc(CC(=O)O)c4)c3)ccc2O[C@H]2O[C@H](CO)[C@@H](O)[C@H](O)[C@@H]2O)c1 : -0.0491% [at 0.349 µM] (inactive)
O=CO : -0.175% [at 8.39 µM] (inactive)
CCCCCCCCCCC : inactive

Please turn your attention to the following entry.
INPUT: So what's the measured activity change for this one? COC(/C=C(\C)CCC=C(C)C)OC
OUTPUT: inactive

---

# Assay name: qHTS assay to identify small molecule antagonists of the estrogen receptor alpha (ER-alpha) signaling pathway using the BG1 cell line - cell viability counter screen (AID 743081);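 note: compound given together with 17beta-estradiol as the ER stimulus; % is set by controls: 0 for no effect and ±100 for the full control effect; nearly all actives have a fitted effect of over 45% in size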
# Condition description: BG1Luc4E2 viability, CellTiter-Fluor, 22 h; series mostly up to 70.3 µM
Inconclusive results are not listed. Active and inactive are the calls of the source. Calls follow the shape of the dose curve; as a rule, active = well fitted cell-killing curve with a large enough effect in the repeat runs; inconclusive = weak or mixed curves, or effect the other way; inactive = flat fitted curve, though single readings scatter.
Property: activity change, negative = cytotoxicity

# count of solved cases: 5
CC(C)SCc1ccco1 : inactive
Cc1cccc(Nc2ccncc2S(=O)(=O)NC(=O)NC(C)C)c1 : inactive
CCC(O)C(C)(C)C (configuration not stated) : inactive
COCCOCCOCCOC : inactive
CC(C)COC(=O)COc1ccc(Cl)cc1Cl : inactive

Batch of 7 molecules: report activity change, negative = cytotoxicity for each.
1. Cc1ccccc1OCC1CO1 (configuration not stated)
2. C/C=C(\C)C(=O)OCC/C=C\CC
3. O=CO
4. C=CCOc1cc(Cl)ccc1C(=O)NCCN(CC)CC
5. CC(C)c1ccccc1O
6. CCOC(=O)CC#N
7. CCCCCCCC[Si](OCC)(OCC)OCC

OUTPUT:
1: inactive; 2: inactive; 3: 0.807% [at 8.47 µM] (inactive); 4: inactive; 5: inactive; 6: inactive; 7: inactive

Batch of 5 molecules: report activity change, negative = cytotoxicity for each.
1. Cc1nc(C)nc(N2C[C@@H](C)N(c3ccnc([C@@H](C)O)n3)[C@@H](C)C2)n1
2. C=CCOc1c(Br)cc(Br)cc1Br
3. CCCCCCCCC(=O)OCC
4. CN(C)CCCNCCC#N
5. NS(=O)(=O)c1cc2c(cc1Cl)NC(CC1CCCC1)NS2(=O)=O (configuration not stated)

OUTPUT:
1: inactive; 2: inactive; 3: inactive; 4: inactive; 5: inactive

Batch of 6 molecules: report activity change, negative = cytotoxicity for each.
1. Cc1ccccc1C
2. COC(/C=C(\C)CCC=C(C)C)OC
3. O=C(CN1CCN(Cc2ccc3c(c2)OCO3)CC1)N1c2ccccc2Sc2ccccc21
4. O=c1cc(O)c(Cl)c[nH]1
5. CCN(CCO)c1cccc(C)c1
6. CC(=O)N(CC(O)CO)c1c(I)c(C(=O)NCC(O)CO)c(I)c(C(=O)NCC(O)CO)c1I (configuration not stated)

OUTPUT:
1. inactive
2. inactive
3. inactive
4. inactive
5. inactive
6. inactive

---

# Target under test: Cytochrome P450 2D6 (Homo sapiens) (UniProt P10635)
# Sequence (P10635 whole entry, looked up): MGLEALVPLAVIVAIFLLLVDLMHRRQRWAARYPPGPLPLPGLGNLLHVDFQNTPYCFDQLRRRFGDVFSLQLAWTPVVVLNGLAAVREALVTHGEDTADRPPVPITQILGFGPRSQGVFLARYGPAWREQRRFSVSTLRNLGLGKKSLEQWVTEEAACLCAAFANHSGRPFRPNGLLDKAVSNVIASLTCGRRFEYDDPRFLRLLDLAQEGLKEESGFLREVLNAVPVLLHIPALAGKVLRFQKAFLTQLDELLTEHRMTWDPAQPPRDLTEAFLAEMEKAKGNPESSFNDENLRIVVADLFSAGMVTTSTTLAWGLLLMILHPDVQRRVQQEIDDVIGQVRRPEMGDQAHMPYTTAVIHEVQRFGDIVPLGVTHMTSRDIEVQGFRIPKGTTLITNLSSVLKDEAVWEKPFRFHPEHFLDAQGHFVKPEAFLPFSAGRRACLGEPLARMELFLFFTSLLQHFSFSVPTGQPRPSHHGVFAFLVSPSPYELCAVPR
# Assay name: Cytochrome P450 Family 2 Subfamily D Member 6 (CYP2D6) small molecule antagonists: luciferase reporter qHTS assay (AID 1671196); note: nearly all actives have a fitted effect of over 50% in size; note: potency is the fitted concentration of half-maximal effect
# Condition description: P450-Glo CYP2D6 enzyme assay, luciferin luminescence, 1 h; series mostly up to 115 µM
# Description: U.S. Tox21 Program National Center for Advancing Translational Sciences [NCATS] U.S. Environmental Protection Agency [EPA] National Institutes of Environmental Health Sciences [NIEHS] National Toxicology Program [NTP] U.S. Food and Drug Administration [FDA] […] The luciferin products formed are detected with a luciferin detection reagent, and the amount of light produced is proportional to CYP activity. […]
Inconclusive results are not listed. Active and inactive are the calls of the source. The call rests on the fitted dose curve; in most records, active means well fitted inhibition curve with a large enough effect in the repeat runs; inconclusive means weak or mixed curves; inactive means no such curve, though single readings can be large or run the other way.
Property: Potency

# count of solved cases: 8
CC(C)COC(=O)/C=C/c1ccccc1 : inactive
OC(CCN1CCCCC1)(c1ccccc1)c1ccccc1 : 1.38 µM (active)
CCCCOC(=O)[C@@H](C)Oc1ccc(Oc2ccc(C(F)(F)F)cn2)cc1 : inactive
O=C1OC(=O)c2cc(Oc3ccc4c(c3)C(=O)OC4=O)ccc21 : inactive
CCOC(=O)CCCCCCCCC(=O)OCC : inactive
C[C@H]1O[C@H](O[C@H]2[C@H](O)[C@@H](O)[C@@H](O[C@H]3[C@H](O)[C@@H](O)[C@H](O)O[C@@H]3CO)O[C@@H]2CO)[C@H](O)[C@@H](O)[C@@H]1N[C@H]1C=C(CO)[C@@H](O)[C@H](O)[C@H]1O : inactive
O=c1cc(O)c(Cl)c[nH]1 : inactive
Cc1cccc(NC(=S)N(C)C)c1 : inactive

Batch of 4 compounds: report Potency for each.
1. c1ccccc1
2. CC(C)(CO)[C@@H](O)C(=O)NCCCO
3. CCCCC(C)C(=O)O (stereo not given)
4. CCOC(=O)C(C)(C)C

OUTPUT:
1. inactive
2. inactive
3. inactive
4. inactive

Batch of 5 compounds: report Potency for each.
1. CC(C)CCC(=O)CCC(C)C
2. Cc1nc2n(c(=O)c1CCN1CCC(C(=O)c3ccc(F)cc3)CC1)CCS2
3. CCNC(=O)NCCCOc1cccc(CN2CCCCC2)c1
4. COc1ccc(OC)c(NC(=O)CC(C)=O)c1
5. O=C(Nc1cccc(C2=NCCN2)c1)Nc1cccc(C2=NCCN2)c1

OUTPUT:
["inactive", "0.49 µM (active)", "13.8 µM (active)", "31.7 µM (active)", "16.9 µM (active)"]

Batch of 5 compounds: report Potency for each.
1. Cc1ccccc1N1CCN(CCc2nnc3n2CCCC3)CC1
2. CCOC(=O)OCC/C(SC(=O)OCC)=C(\C)N(C=O)Cc1cnc(C)nc1N
3. CCCCC(CC)CNC(=O)CC(C)OC(=O)CCC(=O)O (stereo not given)
4. CCCCC(CC)C(=O)OC(C)C (stereo not given)
5. NS(=O)(=O)c1cc2c(cc1Cl)NC(CC1CCCC1)NS2(=O)=O (stereo not given)

OUTPUT:
["13.8 µM (active)", "2.45 µM (active)", "17.4 µM (active)", "inactive", "inactive"]

Batch of 7 compounds: report Potency for each.
1. CCCOC(=O)CCCCC(=O)OCCC
2. F[Si-2](F)(F)(F)(F)F
3. CC(=O)Nc1ncc([N+](=O)[O-])s1
4. C[N+](C)(C)CC(O)CCl (stereo not given)
5. CCCC(C)CC (stereo not given)
6. NC(Cc1c[nH]c2ccccc12)C(=O)O (stereo not given)
7. C=C(C)C(=O)OC

OUTPUT:
inactive
inactive
inactive
inactive
inactive
17.5 µM (active)
inactive

---

# Target under test: Nuclear receptor subfamily 1 group I member 3 (Homo sapiens) (UniProt Q14994)
# Sequence (Q14994 whole entry, looked up): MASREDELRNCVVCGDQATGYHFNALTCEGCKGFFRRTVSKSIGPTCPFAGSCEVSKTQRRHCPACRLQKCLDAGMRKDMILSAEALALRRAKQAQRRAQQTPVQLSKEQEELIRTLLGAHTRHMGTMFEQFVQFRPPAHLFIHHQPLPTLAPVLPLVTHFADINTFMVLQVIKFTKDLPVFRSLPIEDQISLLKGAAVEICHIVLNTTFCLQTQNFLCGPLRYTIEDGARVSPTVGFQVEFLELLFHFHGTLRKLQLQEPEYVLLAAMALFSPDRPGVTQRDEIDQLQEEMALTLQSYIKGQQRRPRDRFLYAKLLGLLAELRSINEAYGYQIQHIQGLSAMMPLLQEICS
# Assay name: qHTS assay to identify small molecule agonists of the constitutive androstane receptor (CAR) signaling pathway (AID 1224839); note: nearly all actives have a fitted effect of over 15% in size;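 for activation: HepG2 cells stably carrying human CAR and a CYP2B6 luciferase reporter; % is set by controls: 0 for no effect and ±100 for the full control effect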
# Condition description: HepG2 hCAR CYP2B6-luciferase, agonist mode, 24 h; series mostly up to 92.4 µM
Results filed as inconclusive are left out. Active and inactive are the calls of the source. Calls come from the whole dose curve; as a rule, active = well fitted activation curve with a large enough effect in the repeat runs; inconclusive = weak or mixed curves; inactive = no such curve, though single readings can be large or run the other way.
Pick one and only one: active, inactive

Examples with answers:
CC(=O)OCC(=O)[C@@]1(O)[C@H](OC(C)=O)C[C@H]2[C@@H]3CCC4=CC(=O)C=C[C@]4(C)[C@@]3(F)[C@@H](O)C[C@@]21C : inactive
NS(=O)(=O)c1cc2c(cc1Cl)NC(C(Cl)Cl)NS2(=O)=O (stereo unspecified) : inactive
O=C1c2ccccc2-c2ccccc21 : inactive
CO[Si](CCCCl)(OC)OC : inactive
CCOC(=O)CCCCCCCCC(=O)OCC : inactive

INPUT: What is the recorded call for this compound in the test? NS(=O)(=O)c1cc2c(cc1Cl)NC(CC1CCCC1)NS2(=O)=O (stereo unspecified)
OUTPUT: inactive

INPUT: What is the recorded call for this compound in the test? CC(=O)OC[C@H]1O[C@@H](OC(C)=O)[C@H](OC(C)=O)[C@@H]1OC(C)=O
OUTPUT: inactive

INPUT: What is the recorded call for this compound in the test? CCN(Cc1cccc(S(=O)(=O)O)c1)c1ccccc1
OUTPUT: inactive

INPUT: What is the recorded call for this compound in the test? CCCCC(CC)COC(=O)c1ccccc1 (stereo unspecified)
OUTPUT: inactive

INPUT: What is the recorded call for this compound in the test? Nc1nc(=O)n([C@@H]2O[C@H](CO)[C@@H](O)[C@@H]2F)cc1I
OUTPUT: inactive

INPUT: What is the recorded call for this compound in the test? CC(=O)c1ccc(OCC(=O)N2CCCCC2)cc1
OUTPUT: active

INPUT: What is the recorded call for this compound in the test? C[Si]1(C)N[Si](C)(C)N[Si](C)(C)N1
OUTPUT: inactive

INPUT: What is the recorded call for this compound in the test? CC(C)C(=O)Nc1cccc(C(F)(F)F)c1
OUTPUT: inactive
